- assay method text: isobaric coefficient of expansion
- measurement setup: 303.15 K; 17000 kPa; Liquid
quantity kind: isobaric coefficient of expansion

Please review the entries below; each comes with its answer.
- CCCCCCC [heptane]: 0.00108 1/K
- CCCCCC [hexane]: 0.00114 1/K
- C1CCCCC1 [cyclohexane]: 0.00104 1/K

Lab note: next compound to report on.
Given the compound Cc1ccccc1 [toluene] , what is its reported isobaric coefficient of expansion? 0.000947 1/K

---

- assay method text: isobaric coefficient of expansion
- measurement setup: 303.15 K; 12000 kPa; Liquid
quantity kind: isobaric coefficient of expansion

- CCCCCCC [heptane]: 0.00112 1/K
- Cc1ccccc1 [toluene]: 0.000973 1/K
- CCCCCC [hexane]: 0.00119 1/K

Lab note: next molecule to report on.
Given the molecule C1CCCCC1 [cyclohexane] , what is its reported isobaric coefficient of expansion? 0.00108 1/K
